Just for reference, patent US6989435B2 is where these values come from.

- test-name: Plasma concentration after a single intraperitoneal dose
- Type: in vivo
- assay-setup: ip, 24 hours after a single intraperitoneal dose of 1 mg in 250 μl saline
Positions of bridges follow the written chain, without caps; N, C: chain ends. Non-standard residues stand in square brackets, D forms with d. Residues, ends and D or L forms follow the SMILES beside them. ξ: configuration not given here. ξI = CCC(C)C(N)C(=O)O
observable: level at time molar at 24 h

Exercise: Record request: level at time molar at 24 h value, item CCC(C)C1NC(=O)[C@@H](CCC(N)=O)NC(=O)[C@H](N)CSSC[C@H](C(=O)O)NC(=O)[C@@H](CC(C)C)NC(=O)[C@@H](CC(=O)O)NC(=O)[C@H]2CCCN2C(=O)[C@@H](CCCCN)NC(=O)[C@@H](CCC(N)=O)NC(=O)[C@@H](CCCCN)NC(=O)[C@@H](Cc2c[nH]c3ccccc23)NC1=O (stereo partly drawn) [CRD-Cys13Leu4ile11peptide 3] (H-[dC][dQ][ξI][dW][dK][dQ][dK][dP][dD][dL][dC]-OH; disulfide 1-11; N-terminus and C-terminus assumed)
Solution: > 10 µM

----------
- measured-on: Duffy Antigen Receptor for Chemokines (DARC) (Homo sapiens, UniProt Q16570)
- Sequence (Q16570 1-336): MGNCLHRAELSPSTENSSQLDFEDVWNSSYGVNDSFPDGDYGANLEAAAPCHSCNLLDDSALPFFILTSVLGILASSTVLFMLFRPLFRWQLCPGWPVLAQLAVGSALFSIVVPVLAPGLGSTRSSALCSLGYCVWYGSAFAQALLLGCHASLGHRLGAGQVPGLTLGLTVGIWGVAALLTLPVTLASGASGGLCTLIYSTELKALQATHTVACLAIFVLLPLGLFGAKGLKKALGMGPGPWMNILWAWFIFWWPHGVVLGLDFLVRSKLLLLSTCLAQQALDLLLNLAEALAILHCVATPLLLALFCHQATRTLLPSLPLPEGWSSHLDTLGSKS
- test-name: DARC binding: competition with 125I-labeled MCP-1 on red blood cells
- assay-setup: Table 7; estimated ka for binding to red blood cells divided by average inhibitory ED50 versus each of the chemokines
Positions of bridges follow the written chain, without caps; N, C: chain ends. Non-standard residues stand in square brackets, D forms with d. No end group written: not given here.
Everything with DUFFY SELECTIVITY lower than 1 is -1; everything else, including exactly 1, is 1.

Exercise: Confirm if DUFFY SELECTIVITY reported for the substance CADPKQKWVQ [Peptide 3[3-12]] is 1 or above.
Solution: 1

Exercise: Confirm if DUFFY SELECTIVITY reported for the substance CQVWKQKPDAC [LRD-Cys13leu4ile11pep3[3-12]] is 1 or above.
Solution: 1

Exercise: Confirm if DUFFY SELECTIVITY reported for the substance EICADPSQKWVQ [Ser7peptide 3] is 1 or above.
Solution: 1

Exercise: Confirm if DUFFY SELECTIVITY reported for the substance EICADPSEEWVQ [Ser7Glu8Glu9pep 3] is 1 or above.
Solution: -1

Exercise: Confirm if DUFFY SELECTIVITY reported for the substance KQKWVQ [Peptide 3[7-12]] is 1 or above.
Solution: 1

Exercise: Confirm if DUFFY SELECTIVITY reported for the substance -CQVWKQKPDA C- ([dC][dQ][dV][dW][dK][dQ][dK][dP][dD][dA][dC]; disulfide 1-11) [CRD-Cys13pep3[3-12]] is 1 or above.
Solution: 1
